# Tested on: 439559-082-T-J2-PDC spheroids viability;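 note: spheroids exposed to the agents for 7 days before readout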
# protocol_text: Anticancer human tumor 439559-082-T-J2-PDC patient-derived colon adenocarcinoma cell line growth inhibition [GQUAD]
# protocol_conditions: second compound 0.0316 µM; first compound 3.16 µM; hits give low values
So basically, if viability, T/C comes in under 70% it's true, and if it's 70% or more it's false.

Illustrative cases are given below, each with its answer.
Cc1cccc(N(C)C(=O)C2C(O)CCN2c2nc(C)cc(C(F)(F)F)c2C#N)c1 (stereo unspecified) + CN(C)c1ccc(Nc2c3ccc(NC(=O)CCN4CCCC4)cc3nc3cc(NC(=O)CCN4CCCC4)ccc23)cc1: false
CC1COCCN1c1cc(C2(O)CC3CCC(C2)O3)c2cnn(-c3ccn[nH]3)c2n1 (stereo unspecified) + CN(C)c1ccc(Nc2c3ccc(NC(=O)CCN4CCCC4)cc3nc3cc(NC(=O)CCN4CCCC4)ccc23)cc1: true
CC1COCCN1c1cc(-c2ccnn2C)c2ccnc(-c3ccn[nH]3)c2n1 (stereo unspecified) + Cc1cnc(CNC(=O)c2c(=O)c3ccc(N4CCCN(C)CC4)nc3n3c2sc2ccccc23)cn1: true

Consider Nc1ccn(C2OC(CO)C(O)C2(F)F)c(=O)n1 (stereo unspecified) + Cc1cnc(CNC(=O)c2c(=O)c3ccc(N4CCCN(C)CC4)nc3n3c2sc2ccccc23)cn1 . Does its viability, T/C lie strictly below 70%?
true

Consider O=C(c1cc(Cc2n[nH]c(=O)c3ccccc23)ccc1F)N1CCN(C(=O)C2CC2)CC1 + Cc1[nH]c2ccc(F)cc2c1-c1nc2c3cccnc3c3ncccc3c2[nH]1 . Does its viability, T/C lie strictly below 70%?
false

Consider O=c1[nH]cc(F)c(=O)[nH]1 + Cc1cnc(CNC(=O)c2c(=O)c3ccc(N4CCCN(C)CC4)nc3n3c2sc2ccccc23)cn1 . Does its viability, T/C lie strictly below 70%?
true

Consider C=CC(=O)N1CCN(c2nc(=O)n(-c3c(C)ccnc3C(C)C)c3nc(-c4c(O)cccc4F)c(F)cc23)C(C)C1 (stereo unspecified) + CN(C)c1ccc(Nc2c3ccc(NC(=O)CCN4CCCC4)cc3nc3cc(NC(=O)CCN4CCCC4)ccc23)cc1 . Does its viability, T/C lie strictly below 70%?
false

Consider O=C(NO)c1cnc(N2CCN(S(=O)(=O)c3ccc4ccccc4c3)CC2)nc1 + CN(C)c1ccc(Nc2c3ccc(NC(=O)CCN4CCCC4)cc3nc3cc(NC(=O)CCN4CCCC4)ccc23)cc1 . Does its viability, T/C lie strictly below 70%?
true

Consider CC1COCCN1c1cc(C2(S(C)(=N)=O)CC2)nc(-c2ccnc3[nH]ccc23)n1 (stereo unspecified) + Cc1cnc(CNC(=O)c2c(=O)c3ccc(N4CCCN(C)CC4)nc3n3c2sc2ccccc23)cn1 . Does its viability, T/C lie strictly below 70%?
false

Consider CC(C)(O)C1CCC(Nc2ccc3ncc(-c4cccc(C(F)(F)F)c4)n3n2)CC1 (stereo unspecified) + Cc1[nH]c2ccc(F)cc2c1-c1nc2c3cccnc3c3ncccc3c2[nH]1 . Does its viability, T/C lie strictly below 70%?
true

Consider COc1ncnc(C2CC2)c1-c1ncc2cnn(Cc3ccc(-c4nc(C(F)(F)F)cn4C(C)C)cc3)c2n1 + Cc1cnc(CNC(=O)c2c(=O)c3ccc(N4CCCN(C)CC4)nc3n3c2sc2ccccc23)cn1 . Does its viability, T/C lie strictly below 70%?
false
